method: A CellTox Green Cytotoxicity Assay to monitor cytotoxicity in HEK293 cells - 40 hour (AID 1224871); also: nearly all actives have a fitted effect of over 45% in size
condition_summary: CellTox Green fluorescence; series mostly up to 76.8 µM
From the text: National Center for Advancing Translational Sciences [NCATS] NIH Chemical Genomics Center [NCGC] U.S. Environmental Protection Agency [EPA] National Institutes of Environmental Health Sciences [NIEHS] National Toxicology Program [NTP] Cell-based models are critical for drug discovery. […] Viable cells produce no appreciable increases in fluorescence. Therefore, the fluorescence signal produced by the binding interaction with dead cell DNA is proportional to cytotoxicity. […]
Inconclusive results are not listed. Activity calls are given as the source filed them. Calls follow the shape of the dose curve; as a rule, active = well fitted activation curve with a large enough effect in the repeat runs; inconclusive = weak or mixed curves; inactive = flat fitted curve, though single readings scatter.
Select the matching outcome among 1 (yes) for active, 0 (no) for inactive

Please review the entries below; each comes with its answer.
molecule	assigned_category
CC/C=C(\C)C=O	0 (no)
CCCCC/C=C\C=C\C(=O)OCC	1 (yes)
CCc1cccc(C)c1N(C(=O)C(=O)O)C(C)COC (stereo not given)	0 (no)

Qu. Recorded test call requested for `CCc1c(C)cc(N)c(CC)c1N`
Ans. 0 (no)

Qu. Record lookup: outcome of this test for `O=[N+]([O-])c1ccc(CO)cc1` ?
Ans. 0 (no)

Qu. Just curious, what result did `COCCC(=O)OC` get here?
Ans. 0 (no)

Qu. Given `SC1CCCCC1` , state the outcome it received in this test.
Ans. 0 (no)

---

method: qHTS assay to identify small molecule antagonists of the androgen receptor (AR) signaling pathway - cell viability counter screen (AID 743033; also: nearly all actives have a fitted effect of over 45% in size)
condition_summary: AR-bla HEK293 viability, CellTiter-Glo luminescence, 16 h; series mostly up to 58.5 µM
Records with an inconclusive call do not appear. Calls of active or inactive are those of the source. Calls come from the whole dose curve; as a rule, active = well fitted cell-killing curve with a large enough effect in the repeat runs; inconclusive = weak or mixed curves; inactive = no such curve, though single readings can be large or run the other way.
Parameter call: string, one of active, inactive

Solved cases (4 shown):
molecule	assigned_category
C[C@H](NCCc1ccc(O)cc1)[C@H](O)c1ccc(O)cc1	inactive
CCN(CC)CCOC[C@H]1O[C@@H](O)[C@H](OCCN(CC)CC)[C@@H](O)[C@@H]1O	inactive
CCN(CC)CC#CCOC(=O)C(O)(c1ccccc1)C1CCCCC1 (stereo unspecified)	inactive
N[C@@H](Cc1cnc[nH]1)C(=O)O	inactive

Qu. Record lookup: outcome of this test for `CCCCCN=C(N)N/N=C/c1c[nH]c2ccc(OC)cc12` ?
Ans. inactive

Qu. Hi team, can someone confirm the assay call for `Nc1nc(NC2CC2)c2ncn([C@@H]3C=C[C@@H](CO)C3)c2n1` ?
Ans. inactive

Qu. Status in this test for CC1CCCC(C)N1NC(=O)c1ccc(Cl)c(S(N)(=O)=O)c1 (stereo unspecified) ?
Ans. inactive

Qu. Which outcome was entered for the molecule `O=C1c2ccccc2CN2C(=O)c3ccccc3CN12` in this test?
Ans. inactive

Qu. # lookup: test call for `CN(C[C@@H](CC[N+]12CCC(C3CCCCC3)(CC1)CC2)c1ccc(Cl)c(Cl)c1)C(=O)c1cc(C(F)(F)F)cc(C(F)(F)F)c1`
Ans. active

---

method: qHTS assay for small molecule agonists of the p53 signaling pathway - cell viability (AID 651633);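 also: p53RE-bla HCT reporter cells with a stable beta-lactamase p53 reporter; nearly all actives have a fitted effect of over 30% in size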
condition_summary: p53RE-bla HCT-116 viability, ATP luminescence, 16 h; series mostly up to 83.3 µM
Results filed as inconclusive are left out. The source made the active and inactive calls. Calls come from the whole dose curve.

molecule	outcome
CCC1OC(=O)C[C@@H](O)[C@H](C)[C@@H](O[C@@H]2O[C@H](C)C[C@H](N(C)C)[C@H]2O)[C@@H](CC=O)C[C@@H](C)C(=O)/C=C/[C@]2(C)OC2C1C (stereo partly drawn)	inactive
NCCO/C=C/[C@H](N)C(=O)O	inactive
CS(=O)(=O)c1ccc([C@@H](O)[C@@H](COC(=O)CN)NC(=O)C(Cl)Cl)cc1	inactive
